target: EGFR mutant Del19/T790M (Homo sapiens, UniProt P00533, DEL746-750/T790M); construct: truncated human JAK3, EGFR mutants such as del E746-A750; purchased Carna Biosciences; test: Kinase inhibition assay, EGFR del E746-A750/T790M; format: biochemical; conditions: read-out: EGFR mutants Del19/T790M
Sequence (P00533 with tags, fused parts or gaps DEL746-750/T790M limits assumed): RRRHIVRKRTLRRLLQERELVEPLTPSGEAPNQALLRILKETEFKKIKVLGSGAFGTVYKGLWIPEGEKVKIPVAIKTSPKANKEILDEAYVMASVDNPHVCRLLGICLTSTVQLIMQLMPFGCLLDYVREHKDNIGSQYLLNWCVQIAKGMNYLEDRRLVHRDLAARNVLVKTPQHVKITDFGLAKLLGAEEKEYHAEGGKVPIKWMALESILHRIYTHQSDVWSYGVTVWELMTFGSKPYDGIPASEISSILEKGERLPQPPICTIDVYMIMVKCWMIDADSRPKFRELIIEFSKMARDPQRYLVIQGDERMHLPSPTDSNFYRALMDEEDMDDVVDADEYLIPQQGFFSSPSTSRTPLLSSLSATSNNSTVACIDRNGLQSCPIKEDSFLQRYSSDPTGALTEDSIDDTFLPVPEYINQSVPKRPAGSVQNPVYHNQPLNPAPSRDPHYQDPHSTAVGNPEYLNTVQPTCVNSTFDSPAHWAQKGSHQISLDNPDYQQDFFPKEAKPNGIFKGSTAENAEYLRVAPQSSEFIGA
Attribute Measured: IC50

Study these solved cases before continuing.
1. C=CC(=O)Nc1cc(Nc2nccc(-n3cc(CN(C)C)c(C(C)C)n3)n2)c(OC)cc1N(C)C1COC1 [Compound 114] | < 0.02 µM
2. Cc1cc(Nc2nccc(-n3cc(CN4CC(O)C4)c(C)n3)n2)cc(C)c1OCCO [Compound 149, reference compound] | > 1 µM
3. CC/C=C\CC(=O)Nc1cc(Nc2nccc(-n3cc(CN(C)C)c(-c4ccccc4)n3)n2)c(OC)cc1N1CCOCC1 [Compound 156, reference compound] | 0.02 to 0.2 µM

Entry under review: C=CC(=O)Nc1cc(Nc2ncc(C)c(-n3cc(CN(C)C)c(C4CC4)n3)n2)c(OC)cc1N(C)C1COC1 [Compound 132] . Reported IC50?
< 0.02 µM

Entry under review: C=CC(=O)Nc1cc(Nc2nccc(-n3cc(CN(C)C)c(C)n3)n2)c(OC)cc1N(C)C [Compound 71] . Reported IC50?
< 0.02 µM

Entry under review: C=CC(=O)Nc1cc(Nc2nccc(-n3cc(CN(C)C)c(C(C)C)n3)n2)c(OC)cc1N1CCOCC1 [Compound 93] . Reported IC50?
< 0.02 µM

Entry under review: C=CC(=O)Nc1cc(Nc2ncc(F)c(-n3cc(CN4CCC4)c(C)n3)n2)c(OC)cc1N1CCOCC1 [Compound 62] . Reported IC50?
< 0.02 µM

Entry under review: C=CC(=O)Nc1cc(Nc2nccc(-n3cc(CN(C)C)c(-c4ccccc4)n3)n2)c(OC)cc1N1CCN(C(C)=O)CC1 [Compound 135] . Reported IC50?
< 0.02 µM

Entry under review: C=CC(=O)Nc1cc(Nc2nccc(-n3cc(CO)c(-c4ccccc4)n3)n2)c(OC)cc1N1CCOCC1 [Compound 91] . Reported IC50?
< 0.02 µM

Entry under review: C=CC(=O)Nc1cc(Nc2ncc(Cl)c(-n3cc(CN(C)C)c(C)n3)n2)c(OC)cc1N1CCOCC1 [Compound 52] . Reported IC50?
< 0.02 µM

Entry under review: C=CC(=O)Nc1cc(Nc2ncc(C)c(-n3cc(CN(C)C4CN(C)C4)cn3)n2)c(OC)cc1N1CCOCC1 [Compound 23] . Reported IC50?
0.201 to 1 µM

Entry under review: Cc1cc(Nc2nccc(-n3cc(CN4CC[C@@H](O)C4)c(C)n3)n2)cc(C)c1OCCN1CCCC1 [Compound 148, reference compound] . Reported IC50?
0.201 to 1 µM

Entry under review: C=CC(=O)Nc1cc(Nc2ncc(Cl)c(-n3cc(CN4CC(O)C4)c(C)n3)n2)c(OC)cc1N1CCOCC1 [Compound 49] . Reported IC50?
< 0.02 µM

Entry under review: C=CC(=O)Nc1cc(Nc2nccc(-n3cc(CN(C)C)c(-c4cccs4)n3)n2)c(OC)cc1N1CCOCC1 [Compound 88] . Reported IC50?
< 0.02 µM

Entry under review: C=CC(=O)Nc1cc(Nc2nccc(-n3cc(CN4CCC4)c(C)n3)n2)c(OC)cc1-c1ccccc1 [Compound 65] . Reported IC50?
< 0.02 µM

Entry under review: C=CC(=O)Nc1cc(Nc2nccc(-n3cc(CN(C)C)c(-c4ccccc4)n3)n2)c(OC)cc1N(C)C1COC1 [Compound 96] . Reported IC50?
< 0.02 µM

Entry under review: C=CC(=O)Nc1cc(Nc2nccc(-n3cc(CN4CCC4)c(C4CC4)n3)n2)c(OC)cc1N1CCC1 [Compound 139] . Reported IC50?
< 0.02 µM

Entry under review: C=CC(=O)Nc1cc(Nc2ncc(Cl)c(-n3cc(CN4CCC4)c(C)n3)n2)c(OC)cc1N1CCOCC1 [Compound 50] . Reported IC50?
< 0.02 µM

Entry under review: C=CC(=O)Nc1cc(Nc2nccc(-n3ccc(-c4ccccc4)n3)n2)c(OC)cc1N1CCN(C)CC1 [Compound 85] . Reported IC50?
< 0.02 µM

Entry under review: C=CC(=O)Nc1cc(Nc2nccc(-n3cc(CN4CCC4)c(C(C)C)n3)n2)c(OC)cc1N1CCOCC1 [Compound 119] . Reported IC50?
< 0.02 µM

Entry under review: C=CC(=O)Nc1cc(Nc2nccc(-n3cc(CN4CCC4)c(-c4ccccc4)n3)n2)c(OC)cc1N(C)C1COC1 [Compound 97] . Reported IC50?
< 0.02 µM

Entry under review: C=CC(=O)Nc1cc(Nc2nccc(-n3cc(CN(C)C)c(-c4ccc(C)cc4)n3)n2)c(OC)cc1N1CCOCC1 [Compound 80] . Reported IC50?
< 0.02 µM
